As shown below, each of these binders has a reported R3 Selectivity value.
Target: T1, PACAP-R3 (human, UniProt P41587 24-438)
T1 sequence (looked up): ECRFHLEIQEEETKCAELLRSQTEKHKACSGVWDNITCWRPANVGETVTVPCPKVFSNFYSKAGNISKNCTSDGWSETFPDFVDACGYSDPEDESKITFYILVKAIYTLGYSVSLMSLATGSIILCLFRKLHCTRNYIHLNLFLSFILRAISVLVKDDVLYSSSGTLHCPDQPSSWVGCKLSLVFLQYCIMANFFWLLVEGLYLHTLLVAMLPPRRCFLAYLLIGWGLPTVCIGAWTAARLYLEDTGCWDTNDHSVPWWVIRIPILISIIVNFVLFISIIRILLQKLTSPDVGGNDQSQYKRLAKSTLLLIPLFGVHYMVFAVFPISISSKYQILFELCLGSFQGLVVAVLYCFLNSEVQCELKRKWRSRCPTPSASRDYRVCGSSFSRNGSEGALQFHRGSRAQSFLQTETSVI
Assay: cell-based or functional assay
Use ratio as the unit, but write only the number.

Below, 5 binders whose answers are already recorded.
binder="HSDAVFTDNYTRLRKQMAAKKYLNSIRNKR [R3P127]" readout_value=600
binder="HSDAVFTDNYTRLRKQVAAKKYLQSILNK [R3P93]" readout_value=40
binder="HSDAVFTDNYTRLRKQMAAKKYLNSIKNKI [R3P159]" readout_value=400
binder="HSDAVFTDNYTRLRKQMAAKKYLNSIKNKD [R3P153]" readout_value=200
binder="HSDAVFTDNYTRLRKQMAVKKYLNSIKN [R3P42]" readout_value=10

Let us move to another entry and its R3 Selectivity.
// lookup R3 Selectivity for HSDAVFTDNYTRLRKQMAAKKYLNDIKKGGT [R3P20]
230
